# TARGET_OF_ASSAY: acetylcholine receptor
# EXPERIMENTAL_PROTOCOL: SPR, AchR immobilised, peptide 10 uM
RECORDED_METRIC: Binding affinity (RU)
Just the number please, in RU, no unit attached.

Data request: Looking for the measured Binding affinity (RU) of RRPEVK [6mer-1-652] , can you help?
Data returned: 26

Data request: Looking for the measured Binding affinity (RU) of RRAHNK [6mer-1-1108] , can you help?
Data returned: 43

Data request: Looking for the measured Binding affinity (RU) of KRCPPR [6mer-1-1107] , can you help?
Data returned: 36
